# IC50 annotations
# tested.on: EBI2 (Homo sapiens, UniProt P32249)
# Sequence (P32249 whole entry): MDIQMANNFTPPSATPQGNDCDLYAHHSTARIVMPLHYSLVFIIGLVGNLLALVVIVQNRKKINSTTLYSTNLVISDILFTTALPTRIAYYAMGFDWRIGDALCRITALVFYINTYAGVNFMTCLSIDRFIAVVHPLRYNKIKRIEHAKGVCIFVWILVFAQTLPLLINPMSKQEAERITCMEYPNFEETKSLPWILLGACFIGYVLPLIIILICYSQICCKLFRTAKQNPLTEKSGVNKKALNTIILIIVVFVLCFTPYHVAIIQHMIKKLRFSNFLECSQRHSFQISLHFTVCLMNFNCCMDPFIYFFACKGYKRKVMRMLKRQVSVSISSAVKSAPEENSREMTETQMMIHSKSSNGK
# procedure.details: Cell-based luminescent assay (EBI2 modulation)
# assay.setup: cell-based luminescence; 7a,25-OHC final assay concentration 80 nM; 60 minutes incubation; read-out: IC50
endpoint.label: IC50

{"columns": ["compound", "endpoint.label", "experimental.value"],
 "data": [
  ["O=C(c1ccc(F)cc1)N1CCN(C(=O)c2cc3ccc(Cl)cc3[nH]2)CC1", "IC50", "< 0.1 µM"],
  ["O=C(C#Cc1cccc(Cl)c1Cl)N1CCN(C(=O)c2ccc(C(F)(F)F)cc2)CC1", "IC50", "< 0.1 µM"],
  ["O=C(NCC1CCN(C(=O)/C=C/c2ccc(Br)cc2)CC1)c1ccc(F)cc1", "IC50", "< 0.1 µM"],
  ["O=C(C#Cc1cc(F)cc(F)c1)N1CCN(Cc2ccc(C(F)(F)F)cc2)CC1", "IC50", "0.5 to 5 µM"],
  ["O=C(C#Cc1ccc2c(c1)OCO2)N1CCN(C(=O)c2ccc(Br)cc2)CC1", "IC50", "< 0.1 µM"],
  ["O=C(c1cnc2ccccc2c1)N1CCN(Cc2ccc(Cl)cc2)CC1 [Compound C175]", "IC50", "0.5 to 5 µM"],
  ["Cn1c(C(=O)N2CCN(C(c3ccccc3)c3ccccc3)CC2)cc2ccccc21", "IC50", "< 0.1 µM"],
  ["COC(=O)c1cccc(CN2CCN(C(=O)c3cc4cc(Cl)ccc4[nH]3)CC2)c1", "IC50", "< 0.1 µM"],
  ["O=C(c1ccc(Cl)cc1)N1CCN(C(=O)c2cc3cc(Cl)ccc3[nH]2)CC1", "IC50", "< 0.1 µM"],
  ["O=C(c1ccccc1)C1CCN(C(=O)c2cc3cc(Cl)ccc3[nH]2)CC1", "IC50", "< 0.1 µM"],
  ["N#Cc1ccccc1S(=O)(=O)N1CCN(C(=O)/C=C/c2ccc(F)cc2)CC1", "IC50", "< 0.1 µM"],
  ["COc1ccc(C(=O)N2CCN(C(=O)C#Cc3ccc(F)cc3)CC2)cc1", "IC50", "< 0.1 µM"],
  ["O=C(C#Cc1cc(F)cc(F)c1)N1CCN(Cc2ccc(F)cc2)CC1", "IC50", "0.5 to 5 µM"],
  ["O=C(c1cc2cc(C(F)(F)F)ccc2[nH]1)N1CCN(C(=O)c2ccc(Cl)cc2Cl)CC1", "IC50", "< 0.1 µM"],
  ["O=C(C=Cc1ccc2c(c1)OCO2)N1CCN(C(=O)c2ccc(F)cc2)CC1", "IC50", "< 0.1 µM"],
  ["O=C(C#Cc1ccc(Br)cc1)N1CCN(Cc2ccc(F)cc2)CC1", "IC50", "< 0.1 µM"],
  ["COC(=O)c1cccc(C(=O)N2CCN(C(=O)c3cc4cc(Cl)ccc4[nH]3)CC2)c1", "IC50", "0.1 to 0.5 µM"],
  ["CCCCN1CCN(C(=O)/C=C/c2ccc(Br)cc2)CC1", "IC50", "< 0.1 µM"],
  ["O=C(/C=C/c1ccc(Cl)c(Cl)c1)N1CCN(Cc2ccc(C(F)(F)F)cc2)CC1", "IC50", "< 0.1 µM"],
  ["COc1ccc(C(=O)N2CCN(C(=O)C=Cc3ccc(Cl)c(Cl)c3)CC2)cc1", "IC50", "< 0.1 µM"],
  ["Cc1ccc(C#CC(=O)N2CCN(C(=O)c3ccc(Cl)cc3)CC2)cc1", "IC50", "< 0.1 µM"],
  ["O=C(c1ccc(C(F)(F)F)c(F)c1)N1CCN(C(=O)c2cc3ccc(Br)cc3[nH]2)CC1", "IC50", "< 0.1 µM"],
  ["O=C(C#Cc1ccc(Cl)c(Cl)c1)N1CCN(C(=O)c2ccc(C(F)(F)F)cc2)CC1", "IC50", "< 0.1 µM"],
  ["O=C(c1ccc(B(O)O)cc1)N1CCN(C(=O)c2cc3ccc(Br)cc3[nH]2)CC1", "IC50", "< 0.1 µM"],
  ["O=C(c1cc2cc(Cl)ccc2[nH]1)N1CCC(Oc2ccccn2)CC1", "IC50", "0.1 to 0.5 µM"],
  ["O=C(c1cc2cc(Cl)ccc2[nH]1)N1CCN(S(=O)(=O)c2ccc(-c3ccccc3)cc2)CC1", "IC50", "0.1 to 0.5 µM"],
  ["O=C(c1ccc(P(=O)(O)O)cc1)N1CCN(C(=O)c2cc3cc(Cl)ccc3[nH]2)CC1", "IC50", "0.5 to 5 µM"]
]}
